Target: AKT1 (Homo sapiens (Human), UniProt P31749)
Sequence (P31749 whole entry): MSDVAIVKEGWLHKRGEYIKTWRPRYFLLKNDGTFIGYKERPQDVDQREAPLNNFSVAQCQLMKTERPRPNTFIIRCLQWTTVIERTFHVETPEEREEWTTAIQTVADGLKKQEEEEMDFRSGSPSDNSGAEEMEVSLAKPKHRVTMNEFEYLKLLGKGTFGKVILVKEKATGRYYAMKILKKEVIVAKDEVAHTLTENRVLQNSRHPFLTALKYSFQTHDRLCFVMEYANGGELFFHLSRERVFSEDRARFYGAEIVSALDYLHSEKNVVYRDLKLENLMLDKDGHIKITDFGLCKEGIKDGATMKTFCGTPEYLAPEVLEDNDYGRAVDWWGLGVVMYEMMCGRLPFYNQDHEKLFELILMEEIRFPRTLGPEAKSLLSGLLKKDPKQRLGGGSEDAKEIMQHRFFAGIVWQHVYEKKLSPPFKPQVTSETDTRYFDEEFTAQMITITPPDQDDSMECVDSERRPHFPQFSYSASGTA
Experiment: Inactive Akt Alpha Screen Assay
Conditions: non *labeled: Akt Alpha Screen assay; read-out: AKT1 biochemical assay, IC50
pIC50: −log10 of the molar value.
readout label: pIC50

Here are 3 molecules together with their reported answers.
molecule: c1ccc(OC2CCN(Cc3ccc(-c4nnc5n4-c4cccnc4Nc4ccccc4-5)cc3)CC2)cc1
readout label: pIC50
quantitative readout: 6.08
--
molecule: Cc1cccc2c1Nc1ncccc1-n1c(-c3ccc(C4(N)CCC4)cc3)nnc1-2
readout label: pIC50
quantitative readout: 5.85
--
molecule: O=c1[nH]c2ccccc2n1C1CCN(Cc2ccc(-c3nnc4n3-c3ccccc3Nc3ccccc3-4)cc2)CC1
readout label: pIC50
quantitative readout: 6.03

P. CC(=O)c1ccc(S(=O)(=O)NC2CCN(Cc3ccc(-c4nnc5n4-c4cccnc4Nc4ccccc4-5)cc3)CC2)cc1
Q. O=C(c1ccc2c(c1)OCO2)N1CCN(Cc2ccc(-c3nnc4n3-c3cccnc3Nc3ccccc3-4)cc2)CC1
In: Hi there, can you help? I need to know whether P or Q has lower measured pIC50. Please identify the chosen entry by its label.
Out: Q

* * *

Target: AKT1 (Homo sapiens (Human), UniProt P31749)
Assay: Inactive Akt Alpha Screen Assay
Conditions: non *labeled: Akt Alpha Screen assay; read-out: AKT1 biochemical assay, IC50
pIC50: −log10 of the molar value.
readout label: pIC50

Here are 3 compounds together with their reported answers.
compound: O=C(Nc1ccc(-c2nnc3n2-c2cccnc2Nc2ccccc2-3)cc1)c1cccnc1
pIC50: 6.59

compound: O=C(Cc1ccccc1)Nc1ccc(-c2nnc3n2-c2cccnc2Nc2ccccc2-3)cc1
pIC50: 6.62

compound: N#Cc1ccc(C(=O)NC2CCN(Cc3ccc(-c4nnc5n4-c4cccnc4Nc4ccccc4-5)cc3)CC2)cc1
pIC50: 5.77

a. CCC(=O)Nc1ccc(-c2nnc3n2-c2cccnc2Nc2ccccc2-3)cc1
b. c1ccc2c(c1)Nc1ncccc1-n1c(-c3ccc(C4CCCN4)cc3)nnc1-2 (centres unmarked)
In: // compare measured pIC50, left a , right b , return larger Please identify the chosen entry by its label.
Out: b
(b: 5.96, a: 5.74)

1. c1ccc(-c2nnc(C3CCN(Cc4ccc(-c5nnc6n5-c5cccnc5Nc5ccccc5-6)cc4)CC3)[nH]2)nc1
2. c1ccc(CCN2CCN(Cc3ccc(-c4nnc5n4-c4cccnc4Nc4ccccc4-5)cc3)CC2)cc1
In: Hi there, can you help? I need to know whether 1 or 2 has lower measured pIC50. Please identify the chosen entry by its label.
Out: 2
(2: 5.24, 1: 7.08)

* * *

Target: AKT1 (Homo sapiens (Human), UniProt P31749)
Assay: Inactive Akt Alpha Screen Assay
Settings: non *labeled: Akt Alpha Screen assay; read-out: AKT1 biochemical assay, IC50
readout label: IC50 (nM)

Here are 3 compounds together with their reported answers.
record smiles: c1ccc2c(c1)Nc1ncccc1-n1c(-c3ccc(CN4CCOCC4)cc3)nnc1-2
IC50, nM: 1600
--
record smiles: CCCN(C)Cc1ccc(-c2nnc3n2-c2cccnc2Nc2ccccc2-3)cc1
IC50, nM: 2500
--
record smiles: Cc1cc(C(=O)N2CCN(Cc3ccc(-c4nnc5n4-c4cccnc4Nc4ccccc4-5)cc3)CC2)no1
IC50, nM: 2900

P. Cc1cccc(S(=O)(=O)NCc2ccc(-c3nnc4n3-c3cccnc3Nc3ccccc3-4)cc2)c1
Q. O=C(Nc1ccc2c(c1)CCO2)NC1CCN(Cc2ccc(-c3nnc4n3-c3cccnc3Nc3ccccc3-4)cc2)CC1
R. CN(C)C(=O)CN1CCN(Cc2ccc(-c3nnc4n3-c3cccnc3Nc3ccccc3-4)cc2)CC1
In: Sort ascending by IC50. API: response body holds the labels in the requested order.
Out: P, Q, R
